What GI50 was measured for each of the following?
Tested on: DU-145
Test: NCI tumour cell line growth inhibition, 48 h
The source made the active and inactive calls. Rule as the data show it: active = GI50 up to about 1.1 µM and inactive = higher.

Field: example entries. Status: answers known.
COC(=O)c1cc2c(cc1C(=O)OC)[C@@]1(C)CCCC(C)(C)C1CC2 (some centres undefined): 14.1 µM (inactive)
COc1ccc(N2C(=O)C3c4[nH]c5ccccc5c4C4C(C)CCCC4C3C2=O)cc1 (centres undefined): > 83 µM (inactive)
COc1ccc(CCCCl)c(C2=NCCc3cc(OC)c(OC)cc32)c1: > 100 µM (inactive)

Pending compound:
Any idea what GI50 was measured for C=C1C(=O)O[C@H]2[C@H]3O[C@@H](C[C@@H]12)[C@](C)(O)CC[C@@H]1O[C@@]1(C)CCC[C@H]3C ?
12.6 µM (inactive)
